System: LXFL 529 NSCLC
EXPERIMENT NOTES: NCI tumour cell line growth inhibition, 48 h
READOUT LABEL: TGI (µM)
Write it as a number; the unit µM goes unstated.

INSERT INTO measurements (smiles_string, val) VALUES
  ('CCN(CC)CCNc1ccc2nnn3c4ccc(OC)cc4c(=O)c1c23', 21.4);

Let us move to another entry and its TGI.
Query :: Returns the measured TGI for the input compound. Input: `CCN(CC)CCn1ccc(=O)c2cc3c(=O)ccn(CCN(CC)CC)c3c(C)c21`
Result :: 16.5

###

Test system: OVCAR-4 ovarian
EXPERIMENT NOTES: NCI tumour cell line growth inhibition, 48 h; in the data active = GI50 below about 0.43 µM; inactive = the rest
// allowed return values: active, inactive

Reference set, count: 5
INSERT INTO results (molecule, class_label) VALUES
  ('COc1ccc(C(=O)/C=C/c2ccc(/C=C/c3cc(OC)c(OC)c(OC)c3)cc2)cc1', 'inactive'),
  ('Nc1nc(Cl)cc(OCC2(O)CC(COC(=O)c3ccccc3)C2)n1 (configuration not stated)', 'inactive'),
  ('CC(C)(C)C#CC1=C(Br)C(=O)OC1', 'inactive'),
  ('Nc1c(C(=O)Nc2cccc([N+](=O)[O-])c2)sc2nc3c(cc12)C(O)CCC3 (configuration not stated)', 'inactive'),
  ('CCN1C(=O)N(CC)C2C1NN=c1s/c(=C\c3cccnc3)c(=O)n12 (configuration not stated)', 'inactive');

Query :: Hi, do you know how `CN1CCN(CCc2cccc(C(=O)c3cnn(-c4ccc(F)cc4)c3N)c2)CC1` came out in this test?
Result :: inactive

Query :: Just curious, what result did `O=C1OC(=O)C(c2c[nH]c3ccccc23)=C1c1c[nH]c2ccccc12` get here?
Result :: inactive

Query :: What did the test return for `N#Cc1cnc2cc(OC[C@H](O)CO)c(NC(=O)CC3CSSC3)cc2c1Nc1ccc(OCc2cccc(F)c2)c(Cl)c1` ?
Result :: inactive

Query :: Which outcome did this test record for the molecule `O=C1c2ccccc2-c2c1c1ccccc1c(=O)n2CCCNCCCNCCCn1c2c(c3ccccc3c1=O)C(=O)c1ccccc1-2` ?
Result :: active

Query :: How was CC1SC(c2c(Cl)cccc2Cl)N(NC(=O)c2[nH]c3ccc(F)cc3c2-c2ccccc2)C1=O (configuration not stated) classified in this test?
Result :: inactive

Query :: What classification did `CNC(=O)c1cncc(/C=C/c2ccccc2C)c1` end up with in this test?
Result :: inactive

Query :: Could you please tell me the result logged for `Nc1cc2cccc[n+]2c2cc(Cl)ccc12` in this assay?
Result :: inactive

The measured values listed here are drawn from PubChem BioAssay (NCI).
